test system: CEM cells HIV-1 protection, formazan growth assay; test: NCI AIDS Antiviral Assay; conditions: measured here: growth of uninfected CEM cells
OBSERVED_PROPERTY: IC50 (µM)

> print(dat)
                                    compound  observed.property  display.unit  qualifier.operator  reported
 1  O=C1c2ccccc2C(c2ccccc2)(N2CCCCC2)N1c1ccccc1 (configuration not stated)               IC50            µM                   >      17.4
 2  Cc1cc(NS(=O)(=O)c2ccc(NC(=O)c3cccc4c(NNc5ccc(S(N)(=O)=O)cc5)c5ccccc5nc34)cc2)no1               IC50            µM                   =      37.2
 3  c1ccc2c3c([nH]c2c1)[C@H]1C2CCCCN2CN1CC3 (some centres not stated)               IC50            µM                   =       214
 4                N#Cc1ccccc1OCCOc1ccccc1C#N               IC50            µM                   >       200
 5       CC/C(Cl)=N\OC(=O)Nc1ccccc1OC(F)(F)F               IC50            µM                   =      3.16
 6  COC(=O)c1nc2c(C)c(O)c(O)c([C@H](C)CCC=C(C)C)c2o1               IC50            µM                   =      13.5
 7  COc1cc(NS(C)(=O)=O)ccc1Nc1c2ccccc2nc2c1[nH]c1ccc(NC3OC(CO)C(O)C(O)C3O)cc12 (configuration not stated)               IC50            µM                   =    0.0468
 8  CN1C(=O)/C(=C2\SC(=O)N(CNc3ccc(Br)cc3)C2=O)c2ccccc21               IC50            µM                   =      15.5
 9  CC1(C)OP(=O)(c2ccccc2)C=C1Br (configuration not stated)               IC50            µM                   >       200
10             O=c1[nH]c(=O)n(COCCO)c2ccsc12               IC50            µM                   >       200
11  N=C1CSC2=NC3=C(CCC/C3=C\c3ccccc3)C(c3ccccc3)N12 (configuration not stated)               IC50            µM                   >      18.6
12  COc1cc2c[n+](C)c3c4cc(OC)c(OC(C)C)cc4ccc3c2cc1OC               IC50            µM                   =      13.5
13  COc1ccc(/C=c2\c(=O)[nH]c3nc4ccccc4c(=O)n23)cc1               IC50            µM                   =      34.7
14  OCC1OC(n2nc(-c3ccccc3)nc2-c2cnccn2)C(O)C(O)C1O (configuration not stated)               IC50            µM                   >       200
15  C=CCNC(=O)CN(CC(=O)O)C1CCCCC1N(CC(=O)O)CC(=O)O (configuration not stated)               IC50            µM                   >       200
16  CCOC(=O)CCC(NC(=O)c1ccc(Oc2nc3ccc(C(F)(F)F)cc3nc2-c2ccccc2)cc1)C(=O)OCC (configuration not stated)               IC50            µM                   =       195
17  O=S(=O)(F)c1cc(C[P+](c2ccccc2)(c2ccccc2)c2ccccc2)ccc1Cl               IC50            µM                   =      91.2
18                      CSc1n[n+]2c(s1)SCCC2               IC50            µM                   =      58.9
19  COc1cccc(NC(=S)/C(=C(/[O-])c2ccc([N+](=O)[O-])cc2)[n+]2ccccc2)c1               IC50            µM                   >       200
20  COc1ccc(/C=C2\NC(=S)N(CN3CCOCC3)C2=O)cc1               IC50            µM                   =      46.8
21  Cc1ccc(S(=O)(=O)N/N=C2/C3CC4CCC2C4C3)cc1 (configuration not stated)               IC50            µM                   >       200
22       Cn1nc2ccc([N+](=O)[O-])cc2[n+]1[O-]               IC50            µM                   =       155
